Numbers sourced from paper PMC6222357.

Measured Stability (% RE) Long-Term, listed per entry for reference.
# assay_text: Stability of the analytes in beagle plasma QC samples under different storage conditions
# Type: physicochemical, beagle dog
# run_conditions: low QC in beagle plasma, 2 weeks at −80 °C, n = 6
# Method: As illustrated in Table 4. The stability of QC samples at three evaluated concentrations contained low, medium and high under different stored conditions was assessed on the basis of peak areas in comparison with freshly prepared QC sample. The stability of the fourteen analytes in beagle dogs investigated by analyzing QC samples of each analyte at three QC levels (LQC, MQC and HQC) and each level contained six replicates. […]
Reply with just the number (in % RE).

Would you please look over these solved cases?
CN1C(=O)c2c(ccc3c2OCO3)C2(C)C(O)Cc3cc4c(cc3C12)OCO4 (stereo not shown): 3.08
COc1cc2c(cc1O)-c1cc3ccc(OC)c(OC)c3c[n+]1CC2: 9.66
COc1cc2c(cc1OC)-c1cc3ccc(OC)c(OC)c3c[n+]1CC2: 7.79
c1c2c(cc3c1OCO3)-c1cc3ccc4c(c3c[n+]1CC2)OCO4: 5.48
C[n+]1cc2c3c(ccc2c2ccc4cc5c(cc4c21)OCO5)OCO3: 13.35
COc1ccc(CCNC(=O)/C=C/c2ccc(O)c(O)c2)cc1: −8.16
COc1ccc2cc3[n+](cc2c1O)CCc1cc2c(cc1-3)OCO2: 11.85
COc1cc2c(cc1O)CC[n+]1cc3c(OC)c(OC)ccc3cc1-2: 12.90

Look up Stability (% RE) Long-Term: CN1Cc2c(ccc3c2OCO3)[C@@]2(C)[C@@H](O)Cc3cc4c(cc3[C@@H]12)OCO4
13.95

# iterate: CC(=O)O[C@H]1Cc2cc3c(cc2[C@H]2N(C)Cc4c(ccc5c4OCO5)[C@@]12C)OCO3
8.62

# iterate: COc1ccc2cc3[n+](cc2c1OC)CCc1cc2c(cc1-3)OCO2
7.75

# iterate: CN1CCc2cc3c(cc2C(=O)Cc2ccc4c(c2C1)OCO4)OCO3
−5.39

# iterate: COc1cc2c(cc1OC)[C@@H]1Cc3ccc(OC)c(OC)c3CN1CC2 [Terahydropalmatine, tetrahydropalmatine]
−5.67

----------
# assay_text: Pharmacokinetic study in beagle dogs after oral administration of C. bungeana extract (UHPLC-MS/MS of plasma)
# run_conditions: male, beagle, dog, plasma, po, 0.12 g/kg
Measured log10 AUC(0-inf), listed per entry for reference.
Use the decimal logarithm of AUC(0-inf) (µg·h/mL).

Would you please look over these solved cases?
CN1C(=O)c2c(ccc3c2OCO3)C2(C)C(O)Cc3cc4c(cc3C12)OCO4 (centres unmarked): -0.55
CN1CCc2cc3c(cc2C(=O)Cc2ccc4c(c2C1)OCO4)OCO3: 0.03
COc1cc2c(cc1OC)-c1cc3ccc(OC)c(OC)c3c[n+]1CC2: 0.98
COc1ccc2cc3[n+](cc2c1OC)CCc1cc2c(cc1-3)OCO2: 0.58
COc1cc2c(cc1O)CC[n+]1cc3c(OC)c(OC)ccc3cc1-2: -0.79

Look up log10 AUC(0-inf): CN1Cc2c(ccc3c2OCO3)[C@@]2(C)[C@@H](O)Cc3cc4c(cc3[C@@H]12)OCO4
-0.12

# iterate: COc1cc2c(cc1O)-c1cc3ccc(OC)c(OC)c3c[n+]1CC2
0.85

# iterate: CC(=O)O[C@H]1Cc2cc3c(cc2[C@H]2N(C)Cc4c(ccc5c4OCO5)[C@@]12C)OCO3
-0.61

# iterate: COc1ccc2cc3[n+](cc2c1O)CCc1cc2c(cc1-3)OCO2
0.08

# iterate: COc1ccc(CCNC(=O)/C=C/c2ccc(O)c(O)c2)cc1
-0.13

# iterate: COc1cc2c(cc1OC)[C@@H]1Cc3ccc(OC)c(OC)c3CN1CC2 [Terahydropalmatine, tetrahydropalmatine]
-0.21

----------
Measured Stability (% RE) Freeze-Thaw, listed per entry for reference.
# assay_text: Stability of the analytes in beagle plasma QC samples under different storage conditions
# Type: physicochemical, beagle dog
# run_conditions: medium QC in beagle plasma, three freeze (−80 °C)-thaw cycles, n = 6
Reply with just the number (in % RE).

Would you please look over these solved cases?
c1c2c(cc3c1OCO3)-c1cc3ccc4c(c3c[n+]1CC2)OCO4: 8.93
C[n+]1cc2c3c(ccc2c2ccc4cc5c(cc4c21)OCO5)OCO3: 8.78
COc1cc2c(cc1O)CC[n+]1cc3c(OC)c(OC)ccc3cc1-2: 8.68
COc1cc2c(cc1OC)-c1cc3ccc(OC)c(OC)c3c[n+]1CC2: 8.08
COc1ccc(CCNC(=O)/C=C/c2ccc(O)c(O)c2)cc1: 12.92

Look up Stability (% RE) Freeze-Thaw: COc1ccc2cc3[n+](cc2c1OC)CCc1cc2c(cc1-3)OCO2
11.60

# iterate: COc1cc2c(cc1OC)[C@@H]1Cc3ccc(OC)c(OC)c3CN1CC2 [Terahydropalmatine, tetrahydropalmatine]
12.23

# iterate: COc1cc2c(cc1O)-c1cc3ccc(OC)c(OC)c3c[n+]1CC2
12.73

# iterate: CN1CCc2cc3c(cc2C(=O)Cc2ccc4c(c2C1)OCO4)OCO3
4.17

# iterate: CN1Cc2c(ccc3c2OCO3)[C@@]2(C)[C@@H](O)Cc3cc4c(cc3[C@@H]12)OCO4
6.78

# iterate: COc1ccc2cc3[n+](cc2c1O)CCc1cc2c(cc1-3)OCO2
5.15

# iterate: CN1C(=O)c2c(ccc3c2OCO3)C2(C)C(O)Cc3cc4c(cc3C12)OCO4 (stereo not shown)
9.69

# iterate: CC(=O)O[C@H]1Cc2cc3c(cc2[C@H]2N(C)Cc4c(ccc5c4OCO5)[C@@]12C)OCO3
−3.75

----------
# assay_text: Stability of the analytes in beagle plasma QC samples under different storage conditions
# Type: physicochemical, beagle dog
# run_conditions: medium QC, 12 h after sample preparation at 4 °C, n = 6
# Experimental: As illustrated in Table 4. The stability of QC samples at three evaluated concentrations contained low, medium and high under different stored conditions was assessed on the basis of peak areas in comparison with freshly prepared QC sample. The stability of the fourteen analytes in beagle dogs investigated by analyzing QC samples of each analyte at three QC levels (LQC, MQC and HQC) and each level contained six replicates. […]
Measured Stability (% RE) Post-Preparative, listed per entry for reference.
Reply with just the number (in % RE).

Would you please look over these solved cases?
COc1ccc(CCNC(=O)/C=C/c2ccc(O)c(O)c2)cc1: 11.32
CN1C(=O)c2c(ccc3c2OCO3)C2(C)C(O)Cc3cc4c(cc3C12)OCO4 (stereo not drawn): 10.01
COc1cc2c(cc1O)-c1cc3ccc(OC)c(OC)c3c[n+]1CC2: 5.50

Look up Stability (% RE) Post-Preparative: CC(=O)O[C@H]1Cc2cc3c(cc2[C@H]2N(C)Cc4c(ccc5c4OCO5)[C@@]12C)OCO3
−3.44

# iterate: COc1cc2c(cc1OC)[C@@H]1Cc3ccc(OC)c(OC)c3CN1CC2 [Terahydropalmatine, tetrahydropalmatine]
8.29

# iterate: COc1ccc2cc3[n+](cc2c1O)CCc1cc2c(cc1-3)OCO2
7.97

# iterate: COc1ccc2cc3[n+](cc2c1OC)CCc1cc2c(cc1-3)OCO2
9.39

# iterate: COc1cc2c(cc1OC)-c1cc3ccc(OC)c(OC)c3c[n+]1CC2
9.22

# iterate: CN1Cc2c(ccc3c2OCO3)[C@@]2(C)[C@@H](O)Cc3cc4c(cc3[C@@H]12)OCO4
−2.98

# iterate: COc1cc2c(cc1O)CC[n+]1cc3c(OC)c(OC)ccc3cc1-2
8.51

# iterate: C[n+]1cc2c3c(ccc2c2ccc4cc5c(cc4c21)OCO5)OCO3
−2.41

# iterate: CN1CCc2cc3c(cc2C(=O)Cc2ccc4c(c2C1)OCO4)OCO3
11.35

----------
# assay_text: in vivo
# run_conditions: male, beagle, dog, po, 0.12 g/kg
reported_metric: AUC(0-inf) (ng·h/mL)
Reply with just the number (in ng·h/mL).

c1c2c(cc3c1OCO3)-c1cc3ccc4c(c3c[n+]1CC2)OCO4: 6030

Look up AUC(0-inf): C[n+]1cc2c3c(ccc2c2ccc4cc5c(cc4c21)OCO5)OCO3
1350

----------
# assay_text: Stability of the analytes in beagle plasma QC samples under different storage conditions
# Type: physicochemical, beagle dog
# run_conditions: low QC in beagle plasma, 4 h at ambient temperature, n = 6
Lab note: compare Stability (% RE) Short-Term against 10 % RE. Equal or greater, write true (1). Smaller, write false (0).

Record excerpt, results attached:
CN1CCc2cc3c(cc2C(=O)Cc2ccc4c(c2C1)OCO4)OCO3: false (0)
COc1ccc2cc3[n+](cc2c1O)CCc1cc2c(cc1-3)OCO2: true (1)
c1c2c(cc3c1OCO3)-c1cc3ccc4c(c3c[n+]1CC2)OCO4: true (1)
COc1cc2c(cc1O)-c1cc3ccc(OC)c(OC)c3c[n+]1CC2: false (0)

Test whether the compound COc1cc2c(cc1OC)[C@@H]1Cc3ccc(OC)c(OC)c3CN1CC2 [Terahydropalmatine, tetrahydropalmatine] records Stability (% RE) Short-Term of 10 % RE or higher.
false (0)

# iterate: CN1Cc2c(ccc3c2OCO3)[C@@]2(C)[C@@H](O)Cc3cc4c(cc3[C@@H]12)OCO4
false (0)

# iterate: COc1ccc(CCNC(=O)/C=C/c2ccc(O)c(O)c2)cc1
true (1)

# iterate: COc1ccc2cc3[n+](cc2c1OC)CCc1cc2c(cc1-3)OCO2
false (0)
